Hey, just so you know, these numbers are from PubChem BioAssay (Tox21).

- systemTested: Aryl hydrocarbon receptor (Homo sapiens) (UniProt P35869)
- Sequence (P35869 whole entry, looked up): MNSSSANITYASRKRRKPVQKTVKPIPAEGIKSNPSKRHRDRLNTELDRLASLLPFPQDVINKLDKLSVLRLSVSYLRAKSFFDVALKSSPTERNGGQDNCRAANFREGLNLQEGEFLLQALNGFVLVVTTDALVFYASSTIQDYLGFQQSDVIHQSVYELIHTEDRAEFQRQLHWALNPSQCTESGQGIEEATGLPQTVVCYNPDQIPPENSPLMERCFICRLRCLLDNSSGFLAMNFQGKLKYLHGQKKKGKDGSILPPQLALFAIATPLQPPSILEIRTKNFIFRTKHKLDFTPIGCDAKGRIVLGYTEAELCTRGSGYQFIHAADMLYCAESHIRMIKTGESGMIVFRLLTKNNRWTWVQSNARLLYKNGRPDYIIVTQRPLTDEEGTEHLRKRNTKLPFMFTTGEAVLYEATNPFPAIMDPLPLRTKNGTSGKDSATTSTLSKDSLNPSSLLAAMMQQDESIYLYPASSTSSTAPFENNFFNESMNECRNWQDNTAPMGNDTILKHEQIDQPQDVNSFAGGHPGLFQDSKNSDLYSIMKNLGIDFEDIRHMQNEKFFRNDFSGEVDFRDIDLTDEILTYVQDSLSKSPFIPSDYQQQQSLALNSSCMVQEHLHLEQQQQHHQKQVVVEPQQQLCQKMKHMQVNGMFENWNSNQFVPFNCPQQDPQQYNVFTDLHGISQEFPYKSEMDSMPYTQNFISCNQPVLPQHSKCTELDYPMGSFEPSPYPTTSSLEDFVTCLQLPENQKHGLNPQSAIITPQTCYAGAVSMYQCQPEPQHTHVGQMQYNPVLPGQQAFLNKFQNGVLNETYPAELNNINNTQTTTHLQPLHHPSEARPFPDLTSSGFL
- procedureText: qHTS assay to identify small molecule that activate the aryl hydrocarbon receptor (AhR) signaling pathway (AID 743085); note: nearly all actives have a fitted effect of over 15% in size;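 for activation: HG2L7.5c1 human HepG2 liver cells with stably integrated DRE-driven firefly reporter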
- measurementParameters: HepG2 AhR-luc (HG2L7.5c1), luciferase, 24 h; series mostly up to 70.3 µM
Records with an inconclusive call do not appear. The source made the active and inactive calls. Calls come from the whole dose curve; as a rule, active = well fitted activation curve with a large enough effect in the repeat runs; inconclusive = weak or mixed curves; inactive = no such curve, though single readings can be large or run the other way.
Labels: true = active, false = inactive

>>> classlabel("COc1ccc2[nH]cc(CCN(C(C)C)C(C)C)c2c1")
"true"
>>> classlabel("[Cl-].[Cl-].[Sn+2]")
"false"
>>> classlabel("CCC(OC(C)=O)C(CC(C)NC)(c1ccccc1)c1ccccc1 (stereo not drawn)")
"false"
>>> classlabel("CSC(C)(C)/C=N/O")
"false"
>>> classlabel("Clc1ccc(C(c2ccc(Cl)cc2)C(Cl)Cl)cc1")
"false"
>>> classlabel("Oc1ccc2[nH]cc(CCCCN3CC=C(c4ccccc4)CC3)c2c1")
"false"
>>> classlabel("CC(O)C(=O)[O][Hg][c]1ccccc1 (stereo not drawn)")
"false"
>>> classlabel("Cc1cnc2c(C(=O)O)c(Cl)ccc2c1")
"false"
>>> classlabel("C=Cc1cccc(CCl)c1")
"false"
>>> classlabel("CC(C)Br")
"false"
>>> classlabel("CC(C)=CC1C(C(=O)OC(C#N)c2cccc(Oc3ccccc3)c2)C1(C)C (stereo not drawn)")
"false"
>>> classlabel("CC(=O)[O][Pb]([c]1ccccc1)([c]1ccccc1)[c]1ccccc1")
"false"
>>> classlabel("ClC1=C(Cl)[C@]2(Cl)[C@H]3[C@H]([C@@H]4C=C[C@H]3C4)[C@@]1(Cl)C2(Cl)Cl")
"false"
